Where do these numbers come from? They come from patent US8461328B2.

# TARGET OF ASSAY: JAK3 (Homo sapiens)
# Construct: made in house; host or cells: SF9 insect cells (baculovirus)
# Sequence (P52333 783-1124): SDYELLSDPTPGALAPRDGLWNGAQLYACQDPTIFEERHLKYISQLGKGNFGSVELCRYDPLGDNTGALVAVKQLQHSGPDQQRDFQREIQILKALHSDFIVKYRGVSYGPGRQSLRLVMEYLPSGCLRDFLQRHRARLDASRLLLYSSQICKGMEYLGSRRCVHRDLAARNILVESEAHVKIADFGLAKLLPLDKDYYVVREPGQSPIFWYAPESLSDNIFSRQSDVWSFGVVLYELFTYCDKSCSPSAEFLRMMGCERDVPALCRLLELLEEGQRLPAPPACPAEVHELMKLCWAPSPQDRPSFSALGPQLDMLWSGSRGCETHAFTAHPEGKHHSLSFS
# ASSAY METHOD TEXT: JAK3 inhibition (Table 4)
# Format: biochemical
# PROTOCOL CONDITIONS: read-out: JAK3 Ki
pKi: −log10 of the molar value.
Cut-off 7 on pKi, inclusive. At or above means t; below means f.

MOLECULE: c1cc2c(ncc3nnn(C4CCOCC4)c32)[nH]1 [Example 467]
GROUP: f

MOLECULE: NC(=O)Cc1nc2cnc3[nH]ccc3c2n1C1CCCOC1 (racemic) [Example 960]
GROUP: f

MOLECULE: CN(C)C(=O)CCc1nc2cnc3[nH]ccc3c2n1C1CCCCC1 [Example 803]
GROUP: t

MOLECULE: C[C@@H](O)c1nc2cnc3[nH]ccc3c2n1C1CCN(Cc2ncco2)CC1 [Example 923]
GROUP: t

====

# TARGET OF ASSAY: JAK1 (Homo sapiens)
# Construct: made in house; host or cells: SF9 insect cells (baculovirus)
# Sequence (P23458 852-1154): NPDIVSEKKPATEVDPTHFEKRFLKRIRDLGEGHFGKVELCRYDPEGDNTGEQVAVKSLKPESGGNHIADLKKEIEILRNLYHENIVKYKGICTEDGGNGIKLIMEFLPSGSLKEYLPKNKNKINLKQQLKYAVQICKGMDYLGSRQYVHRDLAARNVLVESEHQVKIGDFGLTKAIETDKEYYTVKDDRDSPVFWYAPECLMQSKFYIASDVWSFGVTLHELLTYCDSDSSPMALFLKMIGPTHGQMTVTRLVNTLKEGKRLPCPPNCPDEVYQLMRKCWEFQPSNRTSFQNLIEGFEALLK
# ASSAY METHOD TEXT: JAK1 inhibition (Table 4)
# Type: biochemical
# PROTOCOL CONDITIONS: read-out: JAK1 Ki
pKi: −log10 of the molar value.
MEASURED ENDPOINT: pKi

MOLECULE: Cc1nc2cnc3[nH]ccc3c2n1C1CCN(C2COC2)CC1
DATA VALUE: 8.22

MOLECULE: CC(C1CCCO1)n1cnc2cnc3[nH]ccc3c21 (single isomer, unassigned) [Example 417]
DATA VALUE: 7.05

MOLECULE: CC(C)(C)OC(=O)NC1CCCC(n2cnc3cnc4[nH]ccc4c32)C1 (single isomer, unassigned) [Example 474]
DATA VALUE: 8.68

MOLECULE: O=C(c1ccccc1)N1CCC[C@@H](n2cnc3cnc4[nH]ccc4c32)C1
DATA VALUE: 7.92

MOLECULE: C[C@@H](O)c1nc2cnc3[nH]ccc3c2n1[C@H]1CC[C@H](OCC#N)CC1
DATA VALUE: 9.11

MOLECULE: CS(=O)(=O)Nc1ccc(N2CCC(n3cnc4cnc5[nH]ccc5c43)CC2)nc1
DATA VALUE: 8.15

MOLECULE: C[C@@H](O)c1nc2cnc3[nH]ccc3c2n1C1CCNCC1F (stereo partly shown)
DATA VALUE: 8.77

MOLECULE: N#CCCN1CCC(n2c(C3CC3(F)F)nc3cnc4[nH]ccc4c32)CC1 (racemic)
DATA VALUE: 8.14

MOLECULE: Cc1nc2cnc3[nH]ccc3c2n1C1CC2CCC1C2 (stereo not shown) [Example 121a]
DATA VALUE: 9.49

MOLECULE: Cc1nc2cnc3[nH]ccc3c2n1[C@@H]1CC[C@@H](NCCC#N)C1
DATA VALUE: 8.20

MOLECULE: COCC(=O)NCCc1nc2cnc3[nH]ccc3c2n1C1CCCOC1 (racemic)
DATA VALUE: 7.70

MOLECULE: CN1CCC(NC(=O)Cc2nc3cnc4[nH]ccc4c3n2C2CCCOC2)CC1 (racemic)
DATA VALUE: 7.18

MOLECULE: O=C(c1cccnc1)N1CCC(n2cnc3cnc4[nH]ccc4c32)CC1
DATA VALUE: 7.50

MOLECULE: COC1CNCCC1n1c(C)nc2cnc3[nH]ccc3c21 (racemic)
DATA VALUE: 7.92

MOLECULE: Cc1nc2cnc3[nH]ccc3c2n1[C@H]1CC[C@H](NC(C)CC#N)CC1 (stereo partly shown)
DATA VALUE: 8.56

MOLECULE: C[C@@H](O)c1nc2cnc3[nH]ccc3c2n1C1CCN(Cc2ncco2)CC1
DATA VALUE: 7.77

MOLECULE: NC1CCC(n2cnc3cnc4[nH]ccc4c32)C1 (racemic)
DATA VALUE: 7.43

MOLECULE: CC(CC#N)N1CCC(n2c(CCn3cncn3)nc3cnc4[nH]ccc4c32)CC1 (racemic)
DATA VALUE: 7.74

MOLECULE: C[C@@H](O)c1nc2cnc3[nH]ccc3c2n1C1CCC(NCC(F)(F)F)CC1 (stereo partly shown)
DATA VALUE: 7.23

MOLECULE: O=C1CCCN1CCc1nc2cnc3[nH]ccc3c2n1C1CCCCC1
DATA VALUE: 8.11

MOLECULE: CC(CC#N)N1CCC(n2c(C3CCC3)nc3cnc4[nH]ccc4c32)CC1 (racemic)
DATA VALUE: 8.18

MOLECULE: CCN1CCC(n2c(CCNS(C)(=O)=O)nc3cnc4[nH]ccc4c32)C(F)(F)C1 (single isomer, unassigned) [Example 806]
DATA VALUE: 8.47

MOLECULE: O=S(=O)(c1ccccc1)N1CC[C@@H](n2cnc3cnc4[nH]ccc4c32)C1
DATA VALUE: 7.71

MOLECULE: C[C@@H](O)c1nc2cnc3[nH]ccc3c2n1C1CC2CCC1C2 (stereo partly shown)
DATA VALUE: 9.24

MOLECULE: Cc1nc2cnc3[nH]ccc3c2n1[C@H]1CCC[C@@](C)(O)C1
DATA VALUE: 7.89

MOLECULE: Cc1nc2cnc3[nH]ccc3c2n1[C@H]1CC[C@@H](NC(=O)CC(F)(F)F)C1
DATA VALUE: 9.24

MOLECULE: CC(C)(C)OC(=O)NC1CCCC(n2cnc3cnc4[nH]ccc4c32)C1 (single isomer, unassigned) [Example 475]
DATA VALUE: 7.49

MOLECULE: CC(C)OCc1nc2cnc3[nH]ccc3c2n1C1CCN(CCC#N)CC1
DATA VALUE: 7.09

MOLECULE: c1cc2c(ncc3nnn(C4CCCOC4)c32)[nH]1 (single isomer, unassigned) [Example 459]
DATA VALUE: 7.47

MOLECULE: C[C@@H](O)c1nc2cnc3[nH]ccc3c2n1C1CCCC(C#N)C1 (mixture of isomers)
DATA VALUE: 8.22

MOLECULE: N#CCCN1CCC(n2c(CCNC(=O)C3CCC3)nc3cnc4[nH]ccc4c32)CC1
DATA VALUE: 8.39

MOLECULE: CCn1ncc(CN2CCC(n3c([C@@H](C)O)nc4cnc5[nH]ccc5c43)CC2)c1C
DATA VALUE: 7.74

MOLECULE: CS(=O)(=O)N1CC[C@@H](n2cnc3cnc4[nH]ccc4c32)C1
DATA VALUE: 7.20

MOLECULE: CN1CCC(C(=O)N2CCC(n3cnc4cnc5[nH]ccc5c43)CC2)C1 (racemic)
DATA VALUE: 6.50
